# method summary: Single oral dose (5 mg/kg) pharmacokinetics of firocoxib in koalas, plasma HPLC, non-compartmental analysis
# test context: female, plasma, po, 5 mg/kg, t1/2, median value, female koalas; PO 5 mg/kg
quantity kind: half-life (h)
The figure you give is taken to be in h; do not add the unit.

Request: Which half-life is reported for this compound? CC1(C)OC(=O)C(OCC2CC2)=C1c1ccc(S(C)(=O)=O)cc1
Response: 7.24

* * *

# method summary: Single oral dose (5 mg/kg) pharmacokinetics of firocoxib in koalas, plasma HPLC, non-compartmental analysis;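 further: healthy adult koalas, three per sex, anaesthetised the day before dosing for cephalic vein catheterisation, with serial blood draws and firocoxib in plasma quantified by HPLC using fluorescence detection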
# test context: female, plasma, po, 5 mg/kg, Cmax, median value, female koalas; PO 5 mg/kg
quantity kind: Cmax (ng/mL)
The figure you give is taken to be in ng/mL; do not add the unit.

Request: Which Cmax is reported for this compound? CC1(C)OC(=O)C(OCC2CC2)=C1c1ccc(S(C)(=O)=O)cc1
Response: 61.9

Source listed as paper PMC12483202.
